test: NCI Yeast Anticancer Drug Screen. Data for the bub3 strain (AID 167); settings: S. cerevisiae bub3 mutant strain, at 50.0 µM
Compounds without any hit were thinned out: in the full panel of roughly 79,000, 15% have a hit. The source made the active and inactive calls. Cut-off read from the data, not from the text of the source: active = growth inhibition above about 70%; inactive = the rest. Where a SMILES comes first, the peptide text is derived from it. [ ]: non-standard residue; d: D form. Abu = CC[CH](N)C(=O)O
Possible outcomes: active, inactive

Compound	Category
CS(=O)(=O)OC1CCCS(=O)(=O)c2ccccc21 (stereo not given)	inactive
Cc1ccc(N=C(Nc2ccc(C)cc2)C(c2ccccc2)c2ccccc2)cc1	inactive
CCN(CC)Cc1cc(OC)c(OC)c(OC)c1	inactive
COc1ccc(C2=NNC(=O)OC2c2ccccc2)cc1 (stereo not given)	inactive
Cc1ccc2nc(C)cc(NC(=O)c3ccccc3)c2c1	inactive
Cn1c(Cc2ccccc2)c([N+](=O)[O-])c(=O)n(C)c1=O	inactive
O=C(/C=C/c1ccc(O)c(O)c1)c1ccc(O)cc1O	inactive
CC(CO)(CO)N1C(=O)C2C3c4ccccc4C(c4ccccc43)C2C1=O (stereo not given)	inactive
Cc1ccc(C(C)C)cc1OCCOCCCl	inactive
CCC(N)C(=O)NC(C(N)=O)C(C)C (stereo not given) (H-[Abu]-Val-NH2; configuration not given here)	inactive
CCCCS(=O)(=O)C[N+](C)(CC)CC	inactive
COc1cc2c(cc1OC)C(=O)/C(=C/c1ccccc1)CC2	inactive
O=[N+]([O-])c1ccc(/C(=C/c2ccc(Cl)cc2Cl)S(=O)(=O)C(Cl)Cl)o1	active
SC1c2ccccc2-c2ccccc21	inactive
COC(=O)CCNCCSC(=O)c1ccccc1	inactive
O=C1/C(=C\c2ccccc2)Cc2cc3c(cc21)OCO3	inactive
CC1=C[C@H](C[C@]2(C)c3c(c4c(C)cccc4oc3=O)O[C@@H]2C)OC1=O	inactive
CN1CCN(C(=S)C(O)(c2ccccc2)c2ccccc2)CC1	inactive
C=C(C)c1ccc(B2Nc3ccccc3N2)cc1	inactive
COC(=O)c1ccc(CS(=O)(=O)c2ccccc2)cc1	inactive
OCC(O)C(O)C(O)C(O)C(OCc1ccccc1)OCc1ccccc1 (stereo not given)	inactive
Cc1cc(NC(=O)NC(=O)c2ccccc2NC(=O)CN)ccc1Oc1ncc(Br)cn1	inactive
Cc1c(Br)c(Br)nn1C(C)C(=O)N(C)C (stereo not given)	inactive
Nc1cc(=O)[nH]c2ncnn12	inactive
CC1=CC(=O)OC1=O	inactive

----------
assay: NCI Yeast Anticancer Drug Screen. Data for the cln2 rad14 strain (AID 165);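 note: 0% = growth equal to vehicle treated cultures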; conditions: S. cerevisiae cln2 rad14 strain, at 50.0 µM, hits give high values
The panel holds about 79,000 compounds, 15% with a hit somewhere; the sample as a whole holds those more often.
Listed next: entries and their corresponding growth inhibition.
Measured Metric: growth inhibition (%)

Compound	Numeric Readout
Nc1ccc(S(=O)(=O)NC(=O)NCc2ccccc2)cc1	-33
CC(C)C(NC(=O)C(=O)c1c[nH]c2ccc(Cl)cc12)C(=O)O (stereo unspecified)	-10
CCCCCCC(/C=N\N=C\c1ccco1)=C\c1ccccc1	2.75
CSc1nnc(N(C(C)C)C(C)C)c2nc[nH]c12	47.5
CC1(CO)C(O)CCC2(C)C1C(O)CC1CC3CC12CCC3(O)CO (stereo unspecified)	-0.8
NC(N)=NC(N)=Nc1ccc(N=C(N)N=C(N)N)cc1	-0.75
c1ccc(-c2cc(CNc3nc4ccccc4s3)on2)cc1	5.45
Nc1ccc2nc3n(c(=O)c2c1)CCCCC3	23.2
CC[n+]1c([S-])nn(C)c1-c1cnccn1	-13.9
CC(c1ccccc1)N1COc2cc3c(cc2C1)OCN(C(C)c1ccccc1)C3 (stereo unspecified)	-11.8
CCc1ccccc1NC(=O)CC1NC(=O)CS1 (stereo unspecified)	9.9
O=C(/N=C/c1c(O)c2ccccc2oc1=O)NC1CCCCC1	0.65
CCOC(=O)c1nc2ccc(C(F)(F)F)cc2nc1Nc1cc(OC)c(OC)c(OC)c1	2.85
O=C(/C=C\c1ccccc1)Nc1c(Cl)cc(Cl)cc1Cl	-8.75
CCN(CC)/[N+]([O-])=N/OCC(C)O (stereo unspecified)	8.35
O=C(Oc1c(Cl)cc(Cl)cc1Cl)c1ccc([N+](=O)[O-])cc1	-8.65
CCCCC(CC)(CC(=O)O)CC(=O)O	-14.8
CN(C)C=Nc1cc2c3c(c1)CCCN3CCC2	11.8
COc1ccc2c(c1)C(=O)C1CCC(=O)N1C2c1ccc2c(c1)OCO2 (stereo unspecified)	5.9
O=C1CCCC1Sc1ccccn1 (stereo unspecified)	-8.5
CCCC1(C)OCC(C)([N+](=O)[O-])CO1 (stereo unspecified)	-22.4
c1ccc(C23c4ccccc4C2c2ccccc23)cc1 (stereo unspecified)	10.2
C=C(Cl)C(=O)O	-0.55
COc1ccc(OC(=O)Nc2cccc(Cl)c2)cc1	-11.3
OC(CCN1CCC2CCC(C2)C1)(c1ccccc1)c1ccc(Cl)cc1 (stereo unspecified)	-26.5
CCc1cc(CCC(=O)Nc2ccccc2[N+](=O)[O-])[nH]c(=S)n1	12
